These data points were gathered from patent US5420140A.

Measured MBC accompanies every entry in the list below.
# Test system: Staphylococcus aureus ATCC 25923
# assay-comment: Determination of MIC and MBC by microdilution method, Staphylococcus aureus ATCC 25923
# Assay type: cell-based
# condition-notes: Staphylococcus aureus, ATCC25923, S. aureus ATCC 25923; read-out: Minimal bactericidal concentration (MBC)

[
  {
    "smiles-entry": "CCn1cc(C(=O)O)c(=O)c2cc(F)c(N3CCC(CN)CC3)c(F)c21",
    "system-name": "Staphylococcus aureus ATCC 25923",
    "MBC (µg/mL)": 0.25
  },
  {
    "smiles-entry": "CCn1cc(C(=O)O)c(=O)c2cc(F)c(N3CCC(CNC(=O)Nc4ccccc4)CC3)c(F)c21",
    "system-name": "Staphylococcus aureus ATCC 25923",
    "MBC (µg/mL)": 0.3
  },
  {
    "smiles-entry": "CCC(=O)NCC1CCN(c2c(F)cc3c(=O)c(C(=O)O)cn(CCF)c3c2F)CC1",
    "system-name": "Staphylococcus aureus ATCC 25923",
    "MBC (µg/mL)": 0.3
  },
  {
    "smiles-entry": "C=CCn1cc(C(=O)O)c(=O)c2cc(F)c(N3CCC(CN)CC3)c(F)c21",
    "system-name": "Staphylococcus aureus ATCC 25923",
    "MBC (µg/mL)": 2
  },
  {
    "smiles-entry": "CCn1cc(C(=O)O)c(=O)c2cc(F)c(N3CCC(CNC(=O)Nc4ccc(C)cc4)CC3)c(F)c21",
    "system-name": "Staphylococcus aureus ATCC 25923",
    "MBC (µg/mL)": 0.06
  }
]
